run-description: compound fluorescence in toxin protease inhibitor counterscreen, primary screen, artefact control for toxin protease inhibitor project, biochemical, multiplex microsphere, HTS (AID 624483)
protocol-conditions: compound autofluorescence counterscreen, microsphere flow cytometry; active compounds read high
About 11,000 (3.1%) of roughly 360,000 compounds were called active. About 2% were inconclusive and are not listed. Shown is part of a subset that was picked to be rich in actives.
outcome-measure: fluorescence intensity
Give bare numbers.

O=C(COc1ccc2oc3c(c2c1)CCCC3)Nc1ccccn1 :: 3750

For each of the items listed, what is its fluorescence intensity?
1. CC1(C)C2CCC1(CS(=O)(=O)NCCc1c[nH]c3ccccc13)C(=O)C2 (stereo unspecified)
2. CCOC(=O)C1=C(COC(=O)[C@H](C)NS(=O)(=O)c2ccccc2F)NC(=O)NC1C (stereo partly specified)
3. COc1ccc(NC(=O)NNC(=O)COc2cc(C)c(Cl)c(C)c2)c(OC)c1
4. CC(=O)Nc1ccc(NC(=O)C2CCCN(S(=O)(=O)c3ccc(Cl)cc3)C2)cc1 (stereo unspecified)
5. O=C(C1CCCO1)N1CCC(c2nc3ccccc3[nH]2)CC1 (stereo unspecified)

[3440, 3650, 4710, 5830, 9970]

====

run-description: compound fluorescence in toxin protease inhibitor counterscreen, primary screen, artefact control for toxin protease inhibitor project, biochemical, multiplex microsphere, HTS (AID 624483)
protocol-conditions: compound autofluorescence counterscreen, microsphere flow cytometry
Screen size: about 360,000 compounds; about 11,000 (3.1%) were called active. Roughly 2% stayed inconclusive and do not appear here. Rule as the data show it: active = fluorescence intensity above about 16000; inconclusive = no clear call, values can overlap the other calls; inactive = below that. Many of the other results were omitted from the sample, so actives are more common in it than they were.
The reply should be one of these categories: T = active, F = inactive

Outcome logged for O=C(Nc1ccccc1-c1ccccc1)c1cccs1 in this assay:
F

Okay, and CC(C)NC(=O)NNc1c(Cl)cncc1Cl ?
F

Okay, and C=C(C)CNC(=S)/N=c1\scc(C)n1CC ?
F

Okay, and CCc1nc2ccc(C(=O)NC3CCN(Cc4ccccc4)CC3)cn2c1N(C)CCN1CCOCC1 ?
F

Okay, and O=C(Nc1cccc(OCC(=O)N2CCOCC2)c1)C1CCCCC1 ?
T

====

run-description: compound fluorescence in toxin protease inhibitor counterscreen, primary screen, artefact control for toxin protease inhibitor project, biochemical, multiplex microsphere, HTS (AID 624483)
protocol-conditions: compound autofluorescence counterscreen, microsphere flow cytometry
The whole screen tested about 360,000 compounds, of which about 11,000 (3.1%) were called active. Roughly 2% stayed inconclusive and do not appear here. No stated cut-off is given here; in the data, active means fluorescence intensity above about 16000; inconclusive means no clear call, values can overlap the other calls; inactive means below that. The list comes from a sample in which actives are over-represented; it also holds close analogues and randomly drawn compounds.
The reply should be one of these categories: active, inactive

COc1ccccc1-c1cc(C(=O)N2CCCCC2)no1 :: inactive

Outcome logged for CCCCCc1c(-c2cccc(Br)c2)ncn1CCc1ccccc1OC in this assay:
inactive

Okay, and COc1ccc2c(c1)CCc1c(C(=O)N3CCc4ccccc4C3)noc1-2 ?
active

Okay, and N[C@@H](Cc1ccccc1)C(=O)N1CCOCC1 ?
inactive

Okay, and Cc1c(NC(=O)c2coc(=O)c(Br)c2)c(=O)n(-c2ccccc2)n1C ?
inactive

Okay, and CC(=O)c1ccc(NC(=O)Cn2c(=O)oc3ccccc32)cc1 ?
inactive

====

run-description: compound fluorescence in toxin protease inhibitor counterscreen, primary screen, artefact control for toxin protease inhibitor project, biochemical, multiplex microsphere, HTS (AID 624483)
protocol-conditions: compound autofluorescence counterscreen, microsphere flow cytometry
About 11,000 (3.1%) of roughly 360,000 compounds were called active. Another 2% or so got no clear call; they are omitted. No stated cut-off is given here; in the data, active means fluorescence intensity above about 16000; inconclusive means no clear call, values can overlap the other calls; inactive means below that. The entries come from a sample that favours actives as a whole.
The reply should be one of these categories: yes = active, no = inactive

Example entries begin here.
O=C(COc1ncnc2ccccc12)NC(=O)NCc1ccccc1 :: yes
Cc1ccc(NS(=O)(=O)c2ccc(-c3coc(C)n3)cc2)c(C)c1 :: no

Outcome logged for C[C@@H]1NC(=O)[C@@]2(C)[C@@H](c3ccccc3)[C@H]3COc4ccccc4[C@@H]3N2C1=O in this assay:
no

Okay, and CCCCc1c(O)nc2n(c1=O)CCS2 ?
yes

Okay, and O=S(=O)(NC1CC1)c1ccc(F)c(F)c1 ?
no

Okay, and CCc1ccccc1NC(=O)CSc1nnc(CCNC(=O)OC(C)(C)C)o1 ?
no

Okay, and COc1ccc(CCn2c(O)c(C=NC3CC3)c(=O)[nH]c2=O)cc1OC ?
no

Okay, and CC(C)(O)C1=C[N+](=O)CC=C1 ?
no

Okay, and CCOC(=O)N1CCN(C(=O)Cc2ccc(-n3c(=S)[nH]c4ccccc4c3=O)cc2)CC1 ?
no

Okay, and CC(C)(C(=O)N1CCC1(C)C(=O)NS(=O)(=O)c1ccc(Br)cc1)c1ccccc1 (stereo not drawn) ?
no

Okay, and Cc1ccccc1CN1CCN(C(=O)c2cccc(F)c2)CC1 ?
no
